Source listed as paper PMC6520937.

Assay: in vitro
Conditions: African green monkey
hey, just use 1 if measured CC50 is less than 20 µM, otherwise 0

Does `Oc1c(Cl)cc(Cl)c(Cl)c1Cc1c(O)c(Cl)cc(Cl)c1Cl` have CC50 strictly under 20 µM? 0

Does `Oc1c(Br)cc(Br)c2cccnc12` have CC50 strictly under 20 µM? 0

Does `CC1=NN(c2ccc(C)c(C)c2)C(=O)/C1=N\Nc1cccc(-c2cccc(C(=O)O)c2)c1O` have CC50 strictly under 20 µM? 1

Does `Oc1cc(Cl)ccc1Oc1ccc(Cl)cc1Cl` have CC50 strictly under 20 µM? 1

Does `CNC(=O)c1cc(Oc2ccc(NC(=O)Nc3ccc(Cl)c(C(F)(F)F)c3)c(F)c2)ccn1` have CC50 strictly under 20 µM? 0
